- test.system: HIF-1 (HIF-1alpha/HIF-1beta (ARNT) heterodimer) (Homo sapiens?, UniProt Q16665;P27540 Q16665:1-826,P27540:2-789)
- Sequence (Q16665 whole entry, chain 1 of 2): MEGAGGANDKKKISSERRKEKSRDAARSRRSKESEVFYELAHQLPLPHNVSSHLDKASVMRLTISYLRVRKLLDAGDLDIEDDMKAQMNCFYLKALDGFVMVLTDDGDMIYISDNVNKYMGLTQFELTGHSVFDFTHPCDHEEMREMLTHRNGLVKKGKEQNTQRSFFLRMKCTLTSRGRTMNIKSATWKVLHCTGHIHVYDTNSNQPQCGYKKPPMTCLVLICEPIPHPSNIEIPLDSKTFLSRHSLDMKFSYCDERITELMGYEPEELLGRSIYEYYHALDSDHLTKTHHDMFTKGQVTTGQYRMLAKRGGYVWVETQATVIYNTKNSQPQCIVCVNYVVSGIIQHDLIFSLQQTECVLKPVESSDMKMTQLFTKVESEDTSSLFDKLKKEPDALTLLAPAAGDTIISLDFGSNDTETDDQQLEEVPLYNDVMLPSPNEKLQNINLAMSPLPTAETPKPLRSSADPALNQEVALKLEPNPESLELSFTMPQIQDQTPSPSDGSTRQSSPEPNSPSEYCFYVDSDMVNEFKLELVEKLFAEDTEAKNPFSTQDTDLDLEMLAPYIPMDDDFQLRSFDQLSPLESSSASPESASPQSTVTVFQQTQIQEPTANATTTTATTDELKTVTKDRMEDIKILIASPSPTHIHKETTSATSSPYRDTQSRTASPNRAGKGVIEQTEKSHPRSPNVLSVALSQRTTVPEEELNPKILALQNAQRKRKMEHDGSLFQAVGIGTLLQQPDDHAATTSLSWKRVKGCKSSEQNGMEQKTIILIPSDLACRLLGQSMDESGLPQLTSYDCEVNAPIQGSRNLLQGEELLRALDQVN
- Sequence (P27540 2-789, chain 2 of 2): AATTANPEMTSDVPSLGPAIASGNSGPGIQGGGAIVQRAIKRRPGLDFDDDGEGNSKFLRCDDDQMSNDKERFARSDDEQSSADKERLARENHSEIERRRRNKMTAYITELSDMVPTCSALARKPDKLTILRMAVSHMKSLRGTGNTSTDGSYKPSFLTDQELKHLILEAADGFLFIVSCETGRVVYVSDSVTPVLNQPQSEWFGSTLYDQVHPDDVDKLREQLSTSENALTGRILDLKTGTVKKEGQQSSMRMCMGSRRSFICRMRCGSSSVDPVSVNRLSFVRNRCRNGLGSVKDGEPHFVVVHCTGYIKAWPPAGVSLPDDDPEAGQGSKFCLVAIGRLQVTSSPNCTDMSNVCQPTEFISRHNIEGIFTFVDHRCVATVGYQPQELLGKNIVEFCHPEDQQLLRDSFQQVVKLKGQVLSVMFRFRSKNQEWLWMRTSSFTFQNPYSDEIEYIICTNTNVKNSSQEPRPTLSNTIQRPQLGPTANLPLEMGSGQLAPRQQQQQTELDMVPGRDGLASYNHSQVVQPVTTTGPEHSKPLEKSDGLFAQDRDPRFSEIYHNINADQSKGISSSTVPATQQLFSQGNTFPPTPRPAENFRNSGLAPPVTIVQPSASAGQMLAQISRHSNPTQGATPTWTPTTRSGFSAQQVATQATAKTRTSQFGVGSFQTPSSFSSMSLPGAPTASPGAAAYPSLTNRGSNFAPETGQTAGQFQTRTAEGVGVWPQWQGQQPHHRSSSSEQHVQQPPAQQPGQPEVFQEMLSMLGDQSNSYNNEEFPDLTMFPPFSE
- procedure.summary: competition; TransAM
- condition.set: protein: extract; tags: none (endogenous, nuclear extract)
measurement.label: binding signal (ratio)
Report only the number, with the unit ratio understood.

Input line: Any idea what binding signal was measured for decoy 945 (dsDNA) DNA 1: CCAGCGTACGAGCCTCAGG DNA 2: CCTGAGGCTCGTACGCTGG ?
Output line: 3.14

Input line: And then decoy 823/824 (dsDNA) DNA 1: TGCATACGTGGGCTCCAACAG DNA 2: CTGTTGGAGCCCACGTATGCA , what is it?
Output line: 4.4

Input line: And then decoy 845/846 (dsDNA) DNA 1: GAGCGTACGTGCCTCAGG DNA 2: CCTGAGGCACGTACGCTC , what is it?
Output line: 1.59
